Test system: COLO 320
Test: Antiproliferative effect against human COLO 320 colon adenocarcinoma cells
Type: functional, cell-based
readout: IC50 (µM)
Express the result in µM but write the number alone.

Q: Name the recorded IC50 for "CISPLATIN" .
Ans: 6.6
